Target: recombinant light chain enterokinase (Bos taurus, UniProt P98072)
Construct: enterokinase cleavage using 30 nM recombinant light chain enterokinase (Novagen); purchased Novagen, Madison, Wis
Sequence (P98072 801-1035 limits assumed): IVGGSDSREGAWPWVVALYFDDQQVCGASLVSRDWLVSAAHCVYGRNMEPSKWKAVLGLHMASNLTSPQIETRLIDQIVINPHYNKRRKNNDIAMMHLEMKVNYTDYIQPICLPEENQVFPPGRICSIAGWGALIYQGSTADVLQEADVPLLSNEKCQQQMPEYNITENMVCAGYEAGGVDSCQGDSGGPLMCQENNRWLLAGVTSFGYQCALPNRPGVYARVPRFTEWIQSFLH
Experiment: Cleavage site test: digestion of synthetic test peptides to completion, HPLC and mass spectroscopy
Assay type: biochemical
Details: 60 to 100 μg peptide digested to completion (36-48 hrs) with 20U enterokinase; reverse phase HPLC, electrospray MS
reported.endpoint: recovered product, product peak 2

* GNYTDRRFI (synthetic enterokinase cleavage sequence) | RFI
* DINDDRSLF (synthetic enterokinase cleavage sequence) | SLF
* GNYTDRYFI (commercial synthetic enterokinase cleavage substrate) | YFI
* GDDDDKIYV (natural enterokinase cleavage sequence) [reference compound] | IYV

So the reported recovered product, product peak 2 for NKAKDRMFI (synthetic enterokinase cleavage sequence) , on recombinant light chain enterokinase (Bos taurus, UniProt P98072), turned out to be MFI

So the reported recovered product, product peak 2 for GNYTDRMFI (synthetic enterokinase cleavage sequence) , on recombinant light chain enterokinase (Bos taurus, UniProt P98072), turned out to be MET

----------
Molecular target: recombinant light chain enterokinase (Bos taurus, UniProt P98072)
Construct: enterokinase cleavage using 30 nM recombinant light chain enterokinase (Novagen); purchased Novagen, Madison, Wis
Assay: Relative rate of cleavage of synthetic peptides by HPLC
Type: biochemical
Settings: about 500 μM peptide, 50 nM recombinant light chain enterokinase
Lab note: compare Cleavage Rate with 0.2 nmol/min, writing Met if less and Not met if equal or more.

Completed entries (count: 4):
• GNYTDRMFI (synthetic enterokinase cleavage sequence) = Not met
• GDDDDK-β-naphthylamine [GDDDDK-βNA, reference compound] = Not met
• GDDDDKIYV (natural enterokinase cleavage sequence) [reference compound] = Not met
• GNYTDRYFI (commercial synthetic enterokinase cleavage substrate) = Not met

Turning now to a further record.
q: Does the reported Cleavage Rate of GNYTDRRFI (synthetic enterokinase cleavage sequence) stay below 0.2 nmol/min?
a: Met
